Target chain: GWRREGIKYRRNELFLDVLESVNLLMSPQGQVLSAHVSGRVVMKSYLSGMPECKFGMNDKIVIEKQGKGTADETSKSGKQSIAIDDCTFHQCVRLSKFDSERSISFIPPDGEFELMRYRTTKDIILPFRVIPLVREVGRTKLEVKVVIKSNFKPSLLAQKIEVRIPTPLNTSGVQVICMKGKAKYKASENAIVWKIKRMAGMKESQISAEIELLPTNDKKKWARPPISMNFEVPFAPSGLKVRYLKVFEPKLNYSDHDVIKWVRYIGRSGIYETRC
Residues, ends and D or L forms follow the SMILES beside them.
Observed Property: pKd
Would you please state pKd, meaning minus log10 of the concentration in mol/L, as a bare number?

// pKd lookup, molecule = CC(=O)N[C@@H](Cc1ccccc1)C(=O)N1CCC[C@H]1C(=O)N[C@@H](CO)C(=O)N[C@@H](CCC(=O)O)C(=O)N[C@@H](Cc1ccc(O)cc1)C(=O)N[C@H](C(=O)N[C@@H](CCCCN)C(=O)N[C@@H](CC(C)C)C(=O)N[C@@H](CC(C)C)C(=O)N[C@@H](CCC(=O)O)C(=O)N[C@@H](CCC(=O)O)C(=O)N[C@@H](CC(N)=O)C(=O)N[C@@H](CCC(=O)O)C(=O)N[C@H](C(=O)N[C@@H](CCC(=O)O)C(=O)N[C@@H](C)C(N)=O)[C@@H](C)O)[C@@H](C)O [BAIAPL1_392–407 E] (Ac-FPSEYTKLLEENETEA-NH2) , result: 6.31

* * *

Recorded Kd for the following molecules
- Assayed System: KPNA4 ARM minor (Homo sapiens, UniProt O00629)
- Construct: 60-487; GST (cleaved yes); made in house; host or cells: Escherichia coli BL21-Gold(DE3)
- Sequence (O00629 60-487): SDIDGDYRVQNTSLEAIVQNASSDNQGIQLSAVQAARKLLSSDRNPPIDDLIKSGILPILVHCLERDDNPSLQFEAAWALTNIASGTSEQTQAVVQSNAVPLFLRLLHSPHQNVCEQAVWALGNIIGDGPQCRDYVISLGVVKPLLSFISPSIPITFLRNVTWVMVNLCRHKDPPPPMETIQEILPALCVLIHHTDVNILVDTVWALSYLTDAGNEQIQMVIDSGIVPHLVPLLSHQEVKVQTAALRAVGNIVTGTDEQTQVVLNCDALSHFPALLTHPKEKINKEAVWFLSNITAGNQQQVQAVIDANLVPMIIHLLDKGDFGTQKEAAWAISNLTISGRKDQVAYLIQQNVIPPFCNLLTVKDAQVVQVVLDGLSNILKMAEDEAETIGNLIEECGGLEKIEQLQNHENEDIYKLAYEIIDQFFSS
- Protocol: FP displacement assay, KPNA4 ARM minor pocket
- Format: binding
- Experimental Conditions: minor pocket probe FITC-NCOR2 5 nM, 50 mM sodium phosphate pH 7.4, room temperature, at least three technical replicates, read-out: KD values ± SEM
Non-standard residues stand in square brackets, D forms with d. Residues, ends and D or L forms follow the SMILES beside them. pS = N[C@@H](COP(=O)(O)O)C(=O)O
Your answer should be a plain number; it is taken to be in µM.

CC(=O)N[C@@H](CC(=O)O)C(=O)N[C@H](C(=O)N[C@@H](CCC(=O)O)C(=O)N[C@@H](Cc1c[nH]cn1)C(=O)NCC(=O)NCC(=O)N[C@@H](CCCCN)C(=O)N[C@@H](CCCNC(=N)N)C(=O)N[C@@H](COP(=O)(O)O)C(=O)N[C@@H](CCCNC(=N)N)C(=O)N[C@@H](CC(C)C)C(=O)N[C@H](C(=O)N1CCC[C@H]1C(=O)N[C@H](C(=O)N[C@@H](CO)C(=O)N[C@@H](Cc1ccc(O)cc1)C(N)=O)C(C)C)[C@@H](C)O)C(C)C [SQSTM1_258–272 pS] (Ac-DVEHGGKR[pS]RLTPVSY-NH2) = 248

For the next question, use this molecule.
Looking up CC(=O)N[C@@H](CC(=O)O)C(=O)N[C@H](C(=O)N[C@@H](CCC(=O)O)C(=O)N[C@@H](Cc1c[nH]cn1)C(=O)NCC(=O)NCC(=O)N[C@@H](CCCCN)C(=O)N[C@@H](CCCNC(=N)N)C(=O)N[C@@H](CCC(=O)O)C(=O)N[C@@H](CCCNC(=N)N)C(=O)N[C@@H](CC(C)C)C(=O)N[C@H](C(=O)N1CCC[C@H]1C(=O)N[C@H](C(=O)N[C@@H](CO)C(=O)N[C@@H](Cc1ccc(O)cc1)C(N)=O)C(C)C)[C@@H](C)O)C(C)C [SQSTM1_258–272 E] (Ac-DVEHGGKRERLTPVSY-NH2) , I see its Kd listed as 41

* * *

- Assayed System: PDCD6IP Alix V domain (Homo sapiens, UniProt Q8WUM4)
- Construct: GST (cleaved yes); made in house; host or cells: Escherichia coli BL21-Gold(DE3)
- Sequence (Q8WUM4 360-702): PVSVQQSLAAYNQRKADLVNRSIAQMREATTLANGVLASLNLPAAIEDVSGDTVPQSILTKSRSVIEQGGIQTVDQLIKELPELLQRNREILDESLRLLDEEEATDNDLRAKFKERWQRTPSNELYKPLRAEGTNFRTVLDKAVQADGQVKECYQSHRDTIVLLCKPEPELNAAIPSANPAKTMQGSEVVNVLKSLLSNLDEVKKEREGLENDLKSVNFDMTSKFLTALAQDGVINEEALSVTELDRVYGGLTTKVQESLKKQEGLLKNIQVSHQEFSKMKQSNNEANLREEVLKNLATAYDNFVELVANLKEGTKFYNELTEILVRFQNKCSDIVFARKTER
- Protocol: FP displacement assay, PDCD6IP Alix V domain
- Format: binding
- Experimental Conditions: probe FITC-HIV1_Gag 5 nM, 50 mM sodium phosphate pH 7.4, room temperature, at least three technical replicates, read-out: KD values ± SEM
Non-standard residues stand in square brackets, D forms with d. Residues, ends and D or L forms follow the SMILES beside them. pS = N[C@@H](COP(=O)(O)O)C(=O)O
Observed Property: Kd (µM)
Record the value in µM, omitting the unit from your answer.

Summary for this compound, CC(=O)N[C@H](C(=O)N[C@@H](COP(=O)(O)O)C(=O)N1CCC[C@H]1C(=O)N[C@@H](CC(C)C)C(=O)N[C@H](C(=O)N[C@@H](CO)C(=O)N[C@@H](CC(C)C)C(=O)N[C@@H](Cc1ccc(O)cc1)C(=O)N1CCC[C@H]1C(=O)N[C@@H](C)C(=O)N[C@@H](CC(C)C)C(=O)N[C@@H](CCC(=O)O)C(=O)N[C@@H](C)C(=O)N[C@@H](CCCNC(=N)N)C(=O)N[C@@H](C)C(=O)N[C@@H](CC(C)C)C(N)=O)C(C)C)[C@@H](C)O [OTUD5_507–522 pS] (Ac-T[pS]PLVSLYPALEARAL-NH2) : Kd is 116

* * *

- Assayed System: TSG101 UEV (Homo sapiens)
- Sequence (Q99816 1-145): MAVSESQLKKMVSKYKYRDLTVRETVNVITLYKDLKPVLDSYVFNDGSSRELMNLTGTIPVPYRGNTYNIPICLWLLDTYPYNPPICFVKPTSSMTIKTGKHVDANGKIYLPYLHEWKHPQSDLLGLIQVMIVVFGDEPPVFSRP
Non-standard residues stand in square brackets, D forms with d. Residues, ends and D or L forms follow the SMILES beside them. pS = N[C@@H](COP(=O)(O)O)C(=O)O
Observed Property: Kd (µM)
Record the value in µM, omitting the unit from your answer.

Kd on TSG101 UEV (Homo sapiens) for CSCC[C@H](NC(=O)[C@@H]1CCCN1C(=O)[C@H](COP(=O)(O)O)NC(=O)[C@H](CC(C)C)NC(=O)[C@@H]1CCCN1C(=O)[C@H](C)NC(=O)[C@@H](NC(=O)[C@@H]1CCCN1C(=O)[C@H](CO)NC(=O)[C@H](CO)NC(=O)[C@H](C)NC(=O)CNC(=O)[C@H](CC(N)=O)NC(=O)[C@H](Cc1ccc(O)cc1)NC(C)=O)[C@@H](C)O)C(=O)N[C@@H](CO)C(=O)N1CCC[C@H]1C(N)=O [GJA1_269–283 pS] (Ac-YNGASSPTAPL[pS]PMSP-NH2) is 209

* * *

- Assayed System: KPNA4 ARM Major (Homo sapiens, UniProt O00629)
Non-standard residues stand in square brackets, D forms with d. Residues, ends and D or L forms follow the SMILES beside them. pT = C[C@@H](OP(=O)(O)O)[C@H](N)C(=O)O
Observed Property: pKd
Give only the number. pKd is defined as minus log10 of concentration in molar units.

Please review the following examples before continuing.
CC(=O)N[C@@H](CC(=O)O)C(=O)N[C@H](C(=O)N[C@@H](CCC(=O)O)C(=O)N[C@@H](Cc1c[nH]cn1)C(=O)NCC(=O)NCC(=O)N[C@@H](CCCCN)C(=O)N[C@@H](CCCNC(=N)N)C(=O)N[C@@H](CO)C(=O)N[C@@H](CCCNC(=N)N)C(=O)N[C@@H](CC(C)C)C(=O)N[C@H](C(=O)N1CCC[C@H]1C(=O)N[C@H](C(=O)N[C@@H](CO)C(=O)N[C@@H](Cc1ccc(O)cc1)C(N)=O)C(C)C)[C@@H](C)O)C(C)C [SQSTM1_258–272 wt] (Ac-DVEHGGKRSRLTPVSY-NH2) = 6.62
CC(=O)N[C@@H](CC(N)=O)C(=O)N[C@@H](Cc1ccc(O)cc1)C(=O)N[C@@H](C)C(=O)N1CCC[C@H]1C(=O)N1CCC[C@H]1C(=O)N[C@H](C(=O)N[C@@H](CCCCN)C(=O)N[C@@H](CCCNC(=N)N)C(=O)N[C@@H](CCC(=O)O)C(=O)N[C@@H](CCCNC(=N)N)C(=O)N[C@H](C(=O)N[C@@H](CO)C(=O)N[C@@H](CO)C(=O)N[C@@H](CC(C)C)C(=O)N[C@H](C(=O)N[C@@H](CCC(N)=O)C(N)=O)[C@@H](C)O)[C@@H](C)OP(=O)(O)O)C(C)C [RANBP3_114–129 pS (p + 5)] (Ac-NYAPPVKRER[pT]SSLTQ-NH2) = 5.95
CC(=O)N[C@@H](CC(=O)O)C(=O)N[C@H](C(=O)N[C@@H](CCC(=O)O)C(=O)N[C@@H](Cc1c[nH]cn1)C(=O)NCC(=O)NCC(=O)N[C@@H](CCCCN)C(=O)N[C@@H](CCCNC(=N)N)C(=O)N[C@@H](CCC(=O)O)C(=O)N[C@@H](CCCNC(=N)N)C(=O)N[C@@H](CC(C)C)C(=O)N[C@H](C(=O)N1CCC[C@H]1C(=O)N[C@H](C(=O)N[C@@H](CO)C(=O)N[C@@H](Cc1ccc(O)cc1)C(N)=O)C(C)C)[C@@H](C)O)C(C)C [SQSTM1_258–272 E] (Ac-DVEHGGKRERLTPVSY-NH2) = 5.28

Okay, now this compound:
pKd in this record for CC(=O)NCC(=O)N[C@@H](C)C(=O)N[C@@H](CCC(=O)O)C(=O)N1CCC[C@H]1C(=O)N[C@@H](C)C(=O)N[C@@H](CC(C)C)C(=O)N[C@@H](CCCCN)C(=O)N[C@@H](CCCNC(=N)N)C(=O)N[C@@H](CO)C(=O)N[C@@H](Cc1c[nH]cn1)C(=O)N[C@@H](CO)C(=O)N[C@@H](CC(=O)O)C(=O)N[C@@H](CO)C(=O)N[C@@H](Cc1ccc(O)cc1)C(N)=O [CDC25A114–125 E] (Ac-GAEPALKRSHSDSY-NH2) : 6.12
